- experimentalProtocol: yeast display, Sf9 membrane polyspecificity reagent, FACS + sequencing; frameworks hold sequencing errors

{"sequenceContent": "QVQLVESGGGLVQAGGSLRLSCAASGLTLTSNAMGWYRQAPGKERELVAAINGSGGITYYADSVKGRFTISRDNAKNTVYLQMNSLKPEDTAVYYCNTVHYNLDYEYDYWGQGTQVTVSS", "polyreactivity (PSR sort gate)": "low polyreactivity"}
{"sequenceContent": "QVQLVESGGGLVQAGGSLRLSCPASGRTFDYNAMGWYRQAPGKERELVAAITSSGGSTYYADSVKGRFTISRDNAKNTVYLQMNSLKPEDSAVYYCATDGQSPYYIYYWGQGTQVTVSS", "polyreactivity (PSR sort gate)": "low polyreactivity"}

====

- experimentalProtocol: yeast display, Sf9 membrane polyspecificity reagent, FACS + sequencing; frameworks hold sequencing errors

{"sequenceContent": "QVQRVESGGGLVQAGGRLRLSFAASGFIFYAMGWYRQAPGKERELVAAITLSDGTTYYADSVKGRFTISRDNAKNTVYLQLNSLKPEDTAVYYCAAEYSVPYRGWDGYEYWGQGTQVTVSS", "polyreactivity (PSR sort gate)": "low polyreactivity"}
{"sequenceContent": "QVQVVESGGGLVQAGGSLRLSCAASGWYNAMGWYRQAPGKERELVAAISWDGDSTYYADSVKGRFTISRENAKNTVYLQMNSLKPEDTAVYYCAATQSTGRGRYYYWGKGTQVTVSS", "polyreactivity (PSR sort gate)": "high polyreactivity"}
{"sequenceContent": "QVQLVESGGGLVQAGGSLRLSCAASGSIFVRNAMGWYRPAPGKERELVADITSRGSSTYYADSVKGRFTISRDNAKNTVYLQMNSLKPEDTAVYYCNAVRYYVRTYIYRHDRGMDYWGQGTQVTVSS", "polyreactivity (PSR sort gate)": "low polyreactivity"}
{"sequenceContent": "QVQLVESGGGLVQAGGSLRLSCAASGITLINYAMGWYRQAPGKERELVAAISTSGSSTYYADSVKGRFTISRDNAKNTVYLQMNSLKPEDTAVYYCAAELDVYSLFGYWGQGTQVTVSS", "polyreactivity (PSR sort gate)": "low polyreactivity"}
{"sequenceContent": "QVQLVESGGGLVQAGGRLRLSCAASGRIFDRYAMGWYRQAPGKERELVAGISFSGGRTYYADSVKGRFTISRDNAKNTVYLQMNSLKPEDTAVYYCNTVTSGFLSYDYWGQGTQVTVSS", "polyreactivity (PSR sort gate)": "high polyreactivity"}
{"sequenceContent": "QVQLVESGGGLVQAGGSLRLSCAASGITFRTYAMGWYRQAPGKERELVAAITRGDSTYYADSVKGRFTISRDNAKNSVYLQMNSLKPEETAVYYCAKESYIVNSRYYTGKMYYWGQGTQVTVSS", "polyreactivity (PSR sort gate)": "low polyreactivity"}
{"sequenceContent": "QVQLVESGGGLVQAGGSLRLSCAASGYTFYKNTMGWYRQAPGKERELVARISRSGGSTYYADSVKGRFTISRDNAKNTVYLQMNSLKPEDTAVYYCAVRQGYRSGIYEYDYWGQGTQVTVSS", "polyreactivity (PSR sort gate)": "high polyreactivity"}
{"sequenceContent": "QVQLVESGGGLVQAGGSLRLSCAASGRTFTPYTMGWYRQAPGKEREFVAAITFRGGSTYYADSVKGRFTLSRDNAKNTVYLQMNSLKPEDTAVYYCNARGHGGWGTSMYYWGQGTQVTVSS", "polyreactivity (PSR sort gate)": "high polyreactivity"}
{"sequenceContent": "QVQLVESGGGLVQAGGSLRISCAASGSTINRYAMGWYRQAPWKERELVAAINWRGSRTYYADSVKGRFTISRDNAKNTVYLQMNSLKPEDTAVYDCAASLGANGFQGRMYYWGQGTQVTVSS", "polyreactivity (PSR sort gate)": "low polyreactivity"}
{"sequenceContent": "QVQLVESGGGLVQAGGSLRLSCAASGRIFGGYTMGSYRQAPGKERELVAAITRSDGSTTYADSVKGRFTISRDNAKNTVSLQMNSMKPEDTAVYYCAAPRASGYYWGQCTQVTVSS", "polyreactivity (PSR sort gate)": "high polyreactivity"}
{"sequenceContent": "QVQLEESGGGLVQAGGSLRLSCAASGSIFLNYGMGWYRQAPGKERELVAGISNGGSTNYADSVKGRFTISRDNAKNTVYLQMNSLKPEDTAVYYCARPAYKSRGKRFDYWGQGTQVTVSS", "polyreactivity (PSR sort gate)": "low polyreactivity"}
{"sequenceContent": "QVQLVESGVGLVQAGGSLRLSCAASGSTLVSYAKGWYIQAPGKERELVASISSGDSTYADSVKGRFTISRDNAKNTVYLQMNSLKPEDTAVYYCNVGNEGSYGFPVTYEYWGQGTQVTVSS", "polyreactivity (PSR sort gate)": "low polyreactivity"}
{"sequenceContent": "QVQLVESGGGLVQAGGSLRLSCAASGFTLLKYDMGWYRQAPGKERELVAAITRRGGRTSYADSVKGRFTISRDNAKNTVYLQMNSLKPEDTAVYYCNADGDTGRFDYWGQGTQVSVSS", "polyreactivity (PSR sort gate)": "high polyreactivity"}
{"sequenceContent": "QVQLVESGGGLVQAGGSLRLSCAASGRTFYDNAMGWDRQAPGKARELVAAITQSGGRTYYADSVKGRFTISRDNAKNTGYLQMNSLKPADTAVYYCAASWPNYLYEYWGQGTQVTVSS", "polyreactivity (PSR sort gate)": "high polyreactivity"}
{"sequenceContent": "QVQLVESGGGLVQAGGSLRLSCAASGSIFQYNDMGWYRQQPGKEREFVADISSSGGSTYYADSVKGRFTISRDTAKNTVYLQMNSLKPEDTEVYYCNADPGYDFYRDEYWGQGTQVTVSS", "polyreactivity (PSR sort gate)": "low polyreactivity"}
{"sequenceContent": "QVHLVESGGGLVQAGGSLRLSCAASGIIFLVYAMGWYRQAPGKEWELVAGISGSATSTNYADSVKGRFTISRDNAKNTVYLQMNSLKPEDTAVYYCAASYYGYYVPDNSKYGYWGQGTQVTVSS", "polyreactivity (PSR sort gate)": "low polyreactivity"}
{"sequenceContent": "QVQLVESGGGLVQAGGSLRLSCAASGRTFYSYTMGWYRPAPGKERELVAAINRGGSTYYADSVKGRFTISRDNAKNTVYLQMNSLKPEDTAVYYCAVGYAHSSNRRYYYKKTHGYWGQGTQVTVSS", "polyreactivity (PSR sort gate)": "low polyreactivity"}
{"sequenceContent": "QDQHVESGGGLVQAGGSLRLSCAASGRTFYRNAMGWYRQAPGKEREFVAVISVSCGSTYYADSVKGRFTISRDNAKNTVYLQMNSLKPEDTAVYYCAKRGPVRKTAYDYCGQGTQVTVSS", "polyreactivity (PSR sort gate)": "low polyreactivity"}
{"sequenceContent": "QVQLVESGGGLVQAGGSLRLSCAASGSIFDYNAMGWYRTAPGKERELVAAITGSGGSTYYADSVKGRFTISRDNAKNTVYLQMNSLTQEDTAVYYCAAPVDYRRYEYEYWGQGTQVTLSS", "polyreactivity (PSR sort gate)": "low polyreactivity"}
{"sequenceContent": "QVQLVESGGGLVQAGGSLRLSCAASGRTFYSNAMGWYRQAAGKERELVAAISYNDGSTYYADSVKGRFTITRDNAKNTVYLQMNSLKPEDTAVYACNADVGAWAWYTRYDYWGQGTQVTVSS", "polyreactivity (PSR sort gate)": "low polyreactivity"}
{"sequenceContent": "QVQLVESGGGLVQAGGSLRLTFAASGINLYDNVMGWYRTAPGKERELVAAISSSGTTKYYADSVKGRFTISRDYAKNTFYLQMNSLNPEDTAVYYCAADGITWYAIAYYYWGQGTQVTVSS", "polyreactivity (PSR sort gate)": "high polyreactivity"}

Value source: the nanobody polyreactivity screen of Harvey et al. (2022)
